melting point reference

Use the examples below as a reference point.
>>> df
                                   compound    assayresult
0    O=CC=Cc1cn(Cc2cccc([N+](=O)[O-])c2)nn1  136 to 140 °C
1  CCCCCCC1(C)Nc2ccccc2-c2c([N+](=O)[O-])cnn21 (stereo not drawn)    86 to 88 °C

Consider the additional compound presented here.
Q. What does the record list as melting point for `CCn1nnc(C(CO)=C(c2ccc(F)cc2)c2ccc(F)cc2)n1` ?
A. 82 to 84 °C

* * *

measurementKind: melting point

Some molecules with recorded melting point:
>>> df
                                   molecule    assayresult
0  O=C(CCc1ccccc1)CN1C(=O)CC1S(=O)c1ccccc1 (mixture of isomers)    49 to 51 °C
1  CCOC(=O)C1=C(C)Nc2cc(=O)[nH]n2C1c1cccc(Cl)c1Cl (centres undefined)  213 to 218 °C
2  Cc1ccc2c(c1)c(N1CCN(C(=O)c3cccs3)CC1)c(C#N)c(=O)n2Cc1ccc(F)cc1         274 °C

Q. # input molecule: `O=c1[nH]c(=Cc2ccc3ccccc3n2)c(=O)[nH]c1=Cc1ccc(Cl)cc1` ; wanted: its melting point
A. 348 to 349 °C

Attribution: a melting point compilation (Tetko et al.; mined from patent text by program, amines drawn as free bases though some values may be those of a salt)
